- Test system: HBsAg
- ASSAY NAME: HBsAg assay (CLIA of secreted HBsAg in HepG2.2.15 culture supernatant)
- Format: cell-based, HBV
- ASSAY CONTEXT: Hepatitis B virus, HepG2.2.15, read-out: IC50 (HBsAg secretion reduced by 50% compared to the no drug control), HepG2.2.15 cells, culture supernatant, HBsAg CLIA
OBSERVED PROPERTY: IC50 (µM)
Answer format: numeric, µM implied, no suffix.

Here is how some compounds turned out for IC50.
CCOc1cc2c(cc1OCC)-c1cc(=O)c(C(=O)O)cn1C(CNS(C)(=O)=O)C2 (centres unmarked) ... 33.3
CCOc1cc2c(cc1OCC)-c1cc(=O)c(C(=O)O)cn1C(CN1CCCC1=O)C2 (centres unmarked) ... 7.45
COCC(C)(C)C1Cc2cc(OCCCCCCN)c(OC)cc2-c2cc(=O)c(C(=O)O)cn21 (centres unmarked) ... 0.068
COCC(C)(C)C1Cc2cc(OCCCN(C)C)c(OC)cc2-c2cc(=O)c(C(=O)O)cn21 (centres unmarked) ... 0.579
COCC(C)(C)C1Cc2cc(OC)c(OC)cc2-c2cc(=O)c(C(=O)O)cn21 (centres unmarked) ... 0.034

Query string: // fetch IC50 given entry COCC(C)(C)C1Cc2cc(OCC(F)(F)F)c(OC)cc2-c2cc(=O)c(C(=O)O)cn21 (centres unmarked)
Result string: 0.009

Query string: // fetch IC50 given entry COCCOc1cc2c(cc1Cl)-c1cc(=O)c(C(=O)O)cn1C(CSC)C2 (centres unmarked)
Result string: 0.117

Query string: // fetch IC50 given entry COCC(C)(C)C1Cc2cc(N3CCCC3)c(OC)cc2-c2cc(=O)c(C(=O)O)cn21 (centres unmarked)
Result string: 0.009

Query string: // fetch IC50 given entry COCC(C)(C)C1Cc2cc(OCCCS(C)(=O)=O)c(OC)cc2-c2cc(=O)c(C(=O)O)cn21 (centres unmarked)
Result string: 0.124

Query string: // fetch IC50 given entry COCC(C)(C)C1Cc2cc(OCCCN3CCCC3)c(OC)cc2-c2cc(=O)c(C(=O)O)cn21 (centres unmarked)
Result string: 0.519

Query string: // fetch IC50 given entry COCC(C)(C)C1Cc2cc(OCCCCCCNC(=O)OC(C)(C)C)c(OC)cc2-c2cc(=O)c(C(=O)O)cn21 (centres unmarked)
Result string: 0.003

###

Here, each record is paired with measured pIC50 data.
- Test system: HBsAg
- ASSAY NAME: HBsAg assay (CLIA of secreted HBsAg in HepG2.2.15 culture supernatant)
- Type: cell-based, HBV
- ASSAY CONTEXT: Hepatitis B virus, HepG2.2.15, read-out: IC50 (HBsAg secretion reduced by 50% compared to the no drug control), HepG2.2.15 cells, culture supernatant, HBsAg CLIA
The meaning of pIC50 here: minus log10 of the concentration in molar units.

Here is how some compounds turned out for pIC50.
COCC(C)(C)C1Cc2cc(OCc3ccccc3)c(OC)cc2-c2cc(=O)c(C(=O)O)cn21 (centres unmarked) ... 8.15
COCC(C)(C)C1Cc2cc(OCC(C)(C)CO)c(OC)cc2-c2cc(=O)c(C(=O)O)cn21 (centres unmarked) ... 8.05
COCC(C)(C)C1Cc2cc(OCCCO)c(OC)cc2-c2cc(=O)c(C(=O)O)cn21 (centres unmarked) ... 7.66
COCCCOc1cc2c(cc1OC)-c1cc(=O)c(C(=O)O)cn1C(C(C)(C)COC)C2 (racemic) ... 8.30

Query string: // fetch pIC50 given entry COCC(C)(C)C1Cc2cc(OCCCN3CCOCC3)c(OC)cc2-c2cc(=O)c(C(=O)O)cn21 (centres unmarked)
Result string: 7.85

###

Here, each record is paired with measured IC50 data.
- System: HBsAg
- ASSAY NAME: HBsAg assay (CLIA of secreted HBsAg in HepG2.2.15 culture supernatant)
- Type: cell-based, HBV
- ASSAY CONTEXT: Hepatitis B virus, HepG2.2.15, read-out: IC50 (HBsAg secretion reduced by 50% compared to the no drug control), HepG2.2.15 cells, culture supernatant, HBsAg CLIA
- Experimental: HepG2.2.15 cells (Acs et al. Proc Natl Acad Sci USA, 84, (1987), 4641-4), a constitutively HBV-expressing cell line were cultured in DMEM+Glutamax-I medium (Invitrogen, Carlsbad, Calif., USA, Catalog number: 11320082), supplemented with 10% fetal bovine serum (Invitrogen, Catalog number: 10099141) and G418 (Invitrogen, Catalog number: 10131027) at a final concentration of 200 mg/L and maintained in 5% CO2 at 37° C. […]
Answer format: numeric, µM implied, no suffix.

Here is how some molecules turned out for IC50.
COCCCOc1cc2c(cc1OC)-c1cc(=O)c(C(=O)O)cn1C(COC)C2 (stereo not drawn) [Example 18] ... 0.075
CCOc1cc2c(cc1OCC)-c1cc(=O)c(C(=O)O)cn1C(CO)C2 (stereo not drawn) [Example 35] ... 0.868

# next molecule below
Query string: // fetch IC50 given entry COCCCOc1cc2c(cc1OC)-c1cc(=O)c(C(=O)O)cn1C(C(C)(C)COCc1ccccc1)C2 (stereo not drawn) [Example 23]
Result string: 0.018
